Consider the following compounds; for each one, report its efflux ratio at 2 h, 1 µM.
target: BCRP (Homo sapiens (Human), UniProt Q9UNQ0); assay: BCRP MDCKII permeability assay: efflux ratio; details: dog
Sequence (Q9UNQ0 whole entry, species assumed): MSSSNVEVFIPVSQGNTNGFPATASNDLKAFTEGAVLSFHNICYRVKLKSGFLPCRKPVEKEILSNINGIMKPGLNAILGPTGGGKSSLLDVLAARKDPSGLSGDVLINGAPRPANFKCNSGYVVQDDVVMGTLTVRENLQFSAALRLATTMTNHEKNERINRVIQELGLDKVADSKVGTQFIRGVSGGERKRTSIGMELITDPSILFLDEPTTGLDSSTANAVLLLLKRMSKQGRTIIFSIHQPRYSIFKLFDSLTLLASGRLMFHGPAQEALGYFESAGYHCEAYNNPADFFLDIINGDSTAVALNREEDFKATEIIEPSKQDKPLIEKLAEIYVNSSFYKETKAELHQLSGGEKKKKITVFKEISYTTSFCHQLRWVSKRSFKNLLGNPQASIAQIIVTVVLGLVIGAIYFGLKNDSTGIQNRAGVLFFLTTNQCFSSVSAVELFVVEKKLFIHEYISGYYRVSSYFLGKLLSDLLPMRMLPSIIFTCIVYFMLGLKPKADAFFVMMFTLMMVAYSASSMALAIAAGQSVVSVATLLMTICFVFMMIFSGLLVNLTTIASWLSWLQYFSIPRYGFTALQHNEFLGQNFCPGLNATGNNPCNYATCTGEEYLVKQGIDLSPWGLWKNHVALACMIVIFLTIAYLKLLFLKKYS
Counter-ions that a name gives are not always drawn.

Provide value of efflux ratio at 2 h, 1 µM for this record tested with BCRP (Homo sapiens (Human), UniProt Q9UNQ0): Cc1c(Nc2c(F)ccc(NS(=O)(=O)c3ccco3)c2Cl)ccc2ncn(C)c(=O)c12
7.43

Note, next up: CCCS(=O)(=O)Nc1ccc(F)c(Nc2ccc3ncn(C)c(=O)c3c2C)c1C#N
33

What would you report for CCCS(=O)(=O)Nc1ccc(F)c(Nc2ccc3ncn(Cc4ccccc4)c(=O)c3c2C)c1Cl ?
0.87

Follow-up entry: CCCS(=O)(=O)Nc1cc(Cl)cc(Nc2ccc3ncn(C)c(=O)c3c2C)c1F
1.51

Ok, now CCCS(=O)(=O)Nc1cc(Cl)cc(Oc2ccc3ncn(C)c(=O)c3c2C)c1F
1.17

Now try CCCS(=O)(=O)Nc1cc(C)cc(Oc2ccc3ncn(C)c(=O)c3c2C)c1F .
0.73

Field entry: CCCS(=O)(=O)Nc1cc(F)c(F)c(Nc2ccc3ncn(C)c(=O)c3c2C)c1Cl
1.64

Also need CCCS(=O)(=O)Nc1cc(F)cc(Nc2ccc3ncn(C)c(=O)c3c2C)c1Cl , thanks.
1.13

Next compound: Cc1c(Nc2cc(F)cc(NS(=O)(=O)CCCF)c2Cl)ccc2ncn(C)c(=O)c12
2.84

Query CCCS(=O)(=O)Nc1ccc(F)c(Nc2ccc3ncn(C(C)C)c(=O)c3c2C)c1Cl [Example 36, trifluoroacetate] next
1.22

Then what about the compound CCCS(=O)(=O)Nc1cc(F)cc(Nc2ccc3ncn(C)c(=O)c3c2C)c1F ?
2.35

Continue with Cc1c(Nc2c(F)ccc(NS(=O)(=O)c3ccccn3)c2Cl)ccc2ncn(C)c(=O)c12
6.46

Next: CCCS(=O)(=O)Nc1ccc(F)c(Nc2ccc3ncn(C)c(=O)c3c2C)c1Cl
1.23

Request: Cc1c(Nc2c(F)c(F)cc(NS(=O)(=O)CCCF)c2F)ccc2ncn(C)c(=O)c12
25.2

Now consider CCCS(=O)(=O)Nc1nccc(Oc2ccc3ncn(C)c(=O)c3c2C)c1Cl and answer again.
2.08

Now this one: CCCS(=O)(=O)Nc1ccc(Cl)c(Nc2ccc3ncn(C)c(=O)c3c2C)c1Cl
1.08

// repeat for CCCS(=O)(=O)Nc1cc(F)cc(Oc2ccc3ncn(C)c(=O)c3c2C)c1F and report
1.26

* * *

experiment: MDR1 LLC-PK1 and BCRP MDCKII permeability assay: permeability coefficient (Papp)
Counter-ions that a name gives are not always drawn.
parameter-measured: Papp at 2 h, 1 µM (nm/s)
Reply numerically in nm/s, unit not repeated.

Requested field: Papp at 2 h, 1 µM. Item: CCCS(=O)(=O)Nc1ccc(F)c(Nc2ccc3ncn(CC)c(=O)c3c2C)c1Cl [Example 37, trifluoroacetate]
299

Moving on to the next compound: Cc1c(Nc2c(F)ccc(NS(=O)(=O)c3ccco3)c2Cl)ccc2ncn(C)c(=O)c12 [Example 20]
329

And the next one, CCCS(=O)(=O)Nc1ccc(Cl)c(Nc2ccc3ncn(C)c(=O)c3c2C)c1Cl [Example 14] ?
265

Next up: CCCS(=O)(=O)Nc1ccc(F)c(Nc2ccc3ncn(CC4CC4)c(=O)c3c2C)c1Cl [Example 38]
206

Here is the next compound: Cc1c(Nc2c(F)cnc(NS(=O)(=O)CCCF)c2Cl)ccc2ncn(C)c(=O)c12 [Example 19]
159

Quick one: CCCS(=O)(=O)Nc1ccc(F)c(Sc2ccc3ncn(C)c(=O)c3c2C)c1Cl [Example 65]
1770

What about Cc1c(Nc2c(F)ccc(NS(=O)(=O)CCCF)c2F)ccc2ncn(C)c(=O)c12 [Example 2] ?
301

Please answer likewise for [2H]C([2H])([2H])n1cnc2ccc(Nc3c(F)ccc(NS(=O)(=O)CCCF)c3Cl)c(C)c2c1=O [Example 23]
395

Here is the next compound: CCCS(=O)(=O)Nc1cc(Cl)cc(Oc2ccc3ncn(C)c(=O)c3c2C)c1F [Example 70]
191

And for CCCS(=O)(=O)Nc1cc(F)cc(Oc2ccc3ncn(C)c(=O)c3c2C)c1Cl [Example 74] ?
284

Item: Cc1c(Nc2c(F)c(F)cc(NS(=O)(=O)CCCF)c2Cl)ccc2ncn(C)c(=O)c12 [Example 8]
275

Now consider Cc1c(Nc2c(F)ccc(NS(=O)(=O)c3cc(F)ccc3F)c2Cl)ccc2ncn(C)c(=O)c12 [Example 25] and answer again.
221

Same for CCCS(=O)(=O)Nc1cc(F)c(F)c(Nc2ccc3ncn(C)c(=O)c3c2C)c1Cl [Example 7]
263

Note, next up: Cc1c(Nc2c(F)ccc(NS(=O)(=O)N3CC[C@@H](F)C3)c2Cl)ccc2ncn(C)c(=O)c12 [Example 22]
343

Note, next up: CCCS(=O)(=O)Nc1ccc(Cl)c(Nc2ccc3ncn(C)c(=O)c3c2C)c1F [Example 40]
287

Next record, please: CCCS(=O)(=O)Nc1ccc(F)c(Oc2ccc3ncn(C)c(=O)c3c2C)c1C#N [Example 69]
244

Could you do the same for CCCS(=O)(=O)Nc1cccc(Oc2ccc3ncn(C)c(=O)c3c2C)c1C#N [Example 66] , please?
232
